tested on: EpCAM; test: Spot phage ELISA, EpCAM; type: binding, human; conditions: spot phage ELISA signal-to-noise on EpCAM
Where no end group is shown, it is not given here.
READOUT_KIND: S/N
Give bare numbers.

Solved entries:
GCPRILMRCKQDSDCMPVCG (disulfide (positions not given here)) [EpCAM EET I-II 4]	23
GPTQSHYGQCGGQGYHGAILCSGTTCQYTMISRSQCLPGAS (disulfide (positions not given here)) [EpCAM CBD 5]	22.8
GCRARPLVCKQDSDCLAGPNGFCG (disulfide (positions not given here)) [EpCAM EET I-II 24]	18.6
GPTQSHYGQCGGRGYPGAVICSGTTCQYHQATRSQCLPGAS (disulfide (positions not given here)) [EpCAM CBD 73]	7.8
GCPRILMRCKQDSDCLAGCGLSSGLVVW (disulfide (positions not given here)) [EpCAM EET I-II 1]	24

Parameters: items (list). Returns: S/N for each item.
1. GPTQSHYGQCGGFGYIGVVRCSGTTCQPHQYFRSQCLPGAS (disulfide (positions not given here)) [EpCAM CBD 32]
2. GPTQSHYGQCGGQGYHGMIRCSGTTCQWVPMVRSQCLPGAS (disulfide (positions not given here)) [EpCAM CBD 39]

Response:
1: 15.1; 2: 12.6

* * *

For each record, write down the corresponding ELISA.
biological target: Her3-Fc (Homo sapiens); construct: purchased R&D 348-RB; assay: Spot phage ELISA, Her3-Fc; format: binding; settings: spot phage ELISA signal; DCP displayed on M13 p8
Sequence (P21860 20-643 limits assumed): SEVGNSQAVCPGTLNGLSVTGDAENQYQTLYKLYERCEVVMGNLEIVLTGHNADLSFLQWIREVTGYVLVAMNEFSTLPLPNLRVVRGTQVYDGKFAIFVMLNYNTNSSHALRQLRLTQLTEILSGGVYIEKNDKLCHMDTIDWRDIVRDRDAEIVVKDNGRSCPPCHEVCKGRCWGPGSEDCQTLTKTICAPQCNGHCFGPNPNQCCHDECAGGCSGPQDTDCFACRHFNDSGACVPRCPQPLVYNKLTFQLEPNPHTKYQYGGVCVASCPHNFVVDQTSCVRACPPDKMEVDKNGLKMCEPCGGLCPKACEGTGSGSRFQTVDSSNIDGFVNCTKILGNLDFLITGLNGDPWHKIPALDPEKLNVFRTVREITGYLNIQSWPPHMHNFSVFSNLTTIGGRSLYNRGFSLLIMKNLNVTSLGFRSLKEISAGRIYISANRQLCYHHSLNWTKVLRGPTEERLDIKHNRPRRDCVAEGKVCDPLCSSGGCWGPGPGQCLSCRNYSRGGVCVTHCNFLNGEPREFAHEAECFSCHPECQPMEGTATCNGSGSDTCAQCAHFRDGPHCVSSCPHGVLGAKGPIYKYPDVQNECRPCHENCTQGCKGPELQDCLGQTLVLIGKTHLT
Where no end group is shown, it is not given here.
Give bare numbers.

GCPRILIRCKQDSDCLAGCVCSGPPPCG (also: bicyclic or more (positions not given here)) [Her3-Fc EET I-II 47]	1.64
GCWSSEKGLACKQDSDCLAGCVCDQTGSCG (also: bicyclic or more (positions not given here)) [Her3-Fc EET I-II 52]	1.65
GCHPDPWWCKQDSDCLARWCG [Her3-Fc EET I-II 37]	3.17
GCPRILMRCKQDSDCLAGCVCSGPPPCG (also: bicyclic or more (positions not given here)) [Her3-Fc EET I-II 7]	1.60
GCDLDLDWIWHECKQDSDCLAGCVCHQGNFCG (also: bicyclic or more (positions not given here)) [Her3-Fc EET I-II 9]	1.44

Provide each entry's ELISA from the list below.
1. GCMNWGTFCKQDSDCLAGCVCALFGVCG (also: bicyclic or more (positions not given here)) [Her3-Fc EET I-II 66]
2. GCPRILMRCKQDSDCLAGCVCAGPPPCG (also: bicyclic or more (positions not given here)) [Her3-Fc EET I-II 42]
3. GCISKWFSCKQDSDCLAGCVCLLWQDCG (also: bicyclic or more (positions not given here)) [Her3-Fc EET I-II 67]
4. AFDCLGQCVPYVLSPYCNSSCTR [Her3-Fc AVR9 6]
5. GCPRILMRCKQDSDCLSGCVCSGPPPCG (also: bicyclic or more (positions not given here)) [Her3-Fc EET I-II 24]
6. GCQLHYSQQGCKQYSULSGLVLWYTIHRLLRWRI [Her3-Fc EET I-II 4]
7. GCQSHYSHQGCKQDSDCLAGYCG [Her3-Fc EET I-II 11]

Response:
1. 1.59
2. 1.52
3. 1.54
4. 1.56
5. 1.61
6. 1.45
7. 1.65

Data provenance is paper PMC10977697.
